Every entry's value here was drawn from ChEMBL document CHEMBL1153346.

System: L6
Experiment: Cytotoxicity against rat L6 cells after 70 hrs by alamar blue assay
Type: cell-based
Conditions: L6, 70 h
Measurement name: pIC50
In simple prose, pIC50 is minus the logarithm base ten of a concentration in moles per litre.

Cl.Cl.N=C(N)c1ccc(SCCCCCSc2ccc(C(=N)N)cc2)cc1; 5.11
Cl.Cl.N=C(N)c1ccc(OCCCCCOc2ccc(C(=N)N)c(F)c2)cc1F; 5.16

Please find the next compound below.
Query: Any idea what pIC50 came out for c1cc(OCCCCCCOc2cccc(C3=NCCN3)c2)cc(C2=NCCN2)c1 on L6?
Reply: 4.00

---

Survival values by entry
System: Trypanosoma brucei rhodesiense
Experiment: Antitrypanosomal activity against Trypanosoma brucei rhodesiense STIB900 trypomastigotes infected in NMRI mouse assessed as mouse survival at 5 mg/kg, ip administered from day 3 to day 6 postinfection
Type: functional
Details: route intraperitoneal
Give the number; days is assumed, so skip it.

Cl.Cl.N=C(N)c1ccc(SCCCCCSc2ccc(C(=N)N)cc2)cc1; 32.3

Field: next compound
Query: Entry COc1cc(C(=N)N)ccc1OCCCCCOc1ccc(C(=N)N)cc1OC.Cl.Cl : reported Survival = ?
Reply: 26
